Data provenance: the supplement of paper PMC12645437

# testedTarget: T1, CRBN, Q96SW2;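 further: pooled lentiviral library of zinc finger degron-EGFP fusions in mCherry-positive Jurkat cells, FACS-sorted after compound exposure, with degron abundance counted by next-generation sequencing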
# T1 chain: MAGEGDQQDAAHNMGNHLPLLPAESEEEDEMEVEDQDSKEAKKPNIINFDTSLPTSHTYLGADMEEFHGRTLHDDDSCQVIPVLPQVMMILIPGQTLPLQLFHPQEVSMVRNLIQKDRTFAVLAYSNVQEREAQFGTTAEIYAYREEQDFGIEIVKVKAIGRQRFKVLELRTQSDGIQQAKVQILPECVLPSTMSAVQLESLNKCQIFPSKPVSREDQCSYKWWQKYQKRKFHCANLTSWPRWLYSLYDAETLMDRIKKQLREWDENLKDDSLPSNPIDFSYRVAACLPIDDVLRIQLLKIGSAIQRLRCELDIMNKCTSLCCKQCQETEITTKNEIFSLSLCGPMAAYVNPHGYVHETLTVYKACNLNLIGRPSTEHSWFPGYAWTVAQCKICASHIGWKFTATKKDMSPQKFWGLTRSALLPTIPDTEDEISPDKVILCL
# assayMethodText: log2 fold change of degron read counts, EGFP-low vs EGFP+ sorted cells (limma voom), compound-induced degradation; higher = more compound-induced degradation of the degron-EGFP fusion; degrons are variants of IKZF1/3 zinc finger 2; compound dose not given here
# experimentalParameters: Jurkat; 18 h; compound: compound 19 (5-tert-butyl-thalidomide)
The full ranking holds about 8,300 sequences; the median of “log2 fold change of degron read counts, EGFP-low vs EGFP+ sorted cells (limma voom), compound-induced degradation” is about -1.1, and the highest 2% start at about 3.2. The full list was thinned out, with the highest values kept by preference.
Respond with criterion met for log2 fold change of degron read counts values of 0.6 and above, criterion not met for values below.

Here's what some known entries look like.
// query Assess whether reported log2 fold change of degron read counts for FTCEVCGAVFTQKGNLLRHIKL [46F_47T_49E_50V_52G_53A_54V_55F_67L_, Q9UKT9] sits at 0.6 or higher.
// result criterion not met

// query Assess whether reported log2 fold change of degron read counts for FKCNQCGRGFTQKGNLLRHIKL [46F_47K_49N_50Q_52G_53R_54G_55F_67L_, Q9UKT9] sits at 0.6 or higher.
// result criterion not met

// query Assess whether reported log2 fold change of degron read counts for FDCDICGAAFTQKGNLLRHIKL [46F_47D_49D_50I_52G_53A_54A_55F_67L_, Q9UKT9] sits at 0.6 or higher.
// result criterion not met

// query Assess whether reported log2 fold change of degron read counts for FCCEVCGAVFTQKGNLLRHIKL [46F_47C_49E_50V_52G_53A_54V_55F_67L_, Q9UKT9] sits at 0.6 or higher.
// result criterion met

// query Assess whether reported log2 fold change of degron read counts for FYCEQCGAMFTQKGNLLRHIKL [46F_47Y_49E_50Q_52G_53A_54M_55F_67L_, Q9UKT9] sits at 0.6 or higher.
// result criterion met

// query Assess whether reported log2 fold change of degron read counts for FLCDICGAPFTQKGNLLRHIKL [46F_47L_49D_50I_52G_53A_54P_55F_67L_, Q9UKT9] sits at 0.6 or higher.
// result criterion met

// query Assess whether reported log2 fold change of degron read counts for FWCEVCGAVFTQKGNLLRHIKL [46F_47W_49E_50V_52G_53A_54V_55F_67L_, Q9UKT9] sits at 0.6 or higher.
// result criterion met

// query Assess whether reported log2 fold change of degron read counts for FHCPQCGAWFTQKGNLLRHIKL [46F_47H_49P_50Q_52G_53A_54W_55F_67L_, Q9UKT9] sits at 0.6 or higher.
// result criterion not met

API: the following record is the query input.
// query Assess whether reported log2 fold change of degron read counts for FECDQCGAYFTQKGNLLRHIKL [46F_47E_49D_50Q_52G_53A_54Y_55F_67L_, Q9UKT9] sits at 0.6 or higher.
// result criterion not met
